Test system: ACHN
Test: NCI tumour cell line growth inhibition, 48 h
Active and inactive are the calls of the source. Rule as the data show it: active = GI50 up to about 1.1 µM and inactive = higher.
measure: GI50

# GI50 of COc1ccc2c(c1OC)C(C(Cl)(Cl)Cl)N1CCc3cc4c(cc3C1=C2)OCO4 (stereo not given) = 22.9 µM (inactive)

Form: compound = `FC(F)(F)c1ccc(/N=C/C=C(/Nc2ccc(C(F)(F)F)cc2)c2ccc(Cl)cc2)cc1` ; GI50 = 10.1 µM (inactive)

Noted for `Cc1cc(N(CCC#N)CCC#N)ccc1C(=N/NC(=O)c1cc(Cl)ccc1O)/N=N/c1cccc(Cl)c1` : its GI50 reads 13 µM (inactive)

Measured GI50, Cc1ccc(C)c(NC(=O)CC2SC(Nc3ccccc3Cl)=NC2=O)c1 (stereo not given) : 71.1 µM (inactive)

Query O=C1CCCC1C(=O)Nc1ccc2ccccc2c1 (stereo not given) yields GI50 of > 100 µM (inactive)

# credit: ChEMBL document CHEMBL1201862
